- EXPERIMENTAL PROTOCOL: Solubility in water and bio-relevant media at 37° C. (HPLC of filtrate, pH of filtrate, XRPD of filter cake)
- Assay type: physicochemical
- MEASUREMENT PARAMETERS: pH of the filtrate, SGF, 0.5 h
Below, each entry is listed alongside its reported PH 0.5 h.

{"columns": ["COMPOUND", "OBSERVED PROPERTY", "MEASURED VALUE"],
 "data": [
  ["Cc1nn(-c2cc(Cl)c(Oc3cc(C(C)C)c(=O)[nH]n3)c(Cl)c2)c(=O)[n-]c1=O.[K+] [Potassium salt Form 2]", "PH 0.5 h", 1.35],
  ["Cc1nn(-c2cc(Cl)c(Oc3cc(C(C)C)c(=O)[nH]n3)c(Cl)c2)c(=O)[n-]c1=O.[Na+] [Sodium salt Form A]", "PH 0.5 h", 1.24]
]}

For record Cc1nn(-c2cc(Cl)c(Oc3cc(C(C)C)c(=O)[nH]n3)c(Cl)c2)c(=O)[nH]c1=O [Free acid Form I] the listed PH 0.5 h is 1.17

For record Cc1nn(-c2cc(Cl)c(Oc3cc(C(C)C)c(=O)[nH]n3)c(Cl)c2)c(=O)[n-]c1=O.[K+] [Potassium salt Form 1] the listed PH 0.5 h is 1.18

---

- EXPERIMENTAL PROTOCOL: Solubility in water and bio-relevant media at 37° C. (HPLC of filtrate, pH of filtrate, XRPD of filter cake)
- Format: physicochemical
- MEASUREMENT PARAMETERS: pH of the filtrate, FeSSIF, 2 h
Below, each entry is listed alongside its reported PH 2 h.
# print the numeric value only

Before answering, review these 3 worked examples.
{"columns": ["COMPOUND", "MEASURED VALUE"],
 "data": [
  ["Cc1nn(-c2cc(Cl)c(Oc3cc(C(C)C)c(=O)[nH]n3)c(Cl)c2)c(=O)[n-]c1=O.[K+] [Potassium salt Form 1]", 5.21],
  ["Cc1nn(-c2cc(Cl)c(Oc3cc(C(C)C)c(=O)[nH]n3)c(Cl)c2)c(=O)[nH]c1=O [Free acid Form I]", 4.86],
  ["Cc1nn(-c2cc(Cl)c(Oc3cc(C(C)C)c(=O)[nH]n3)c(Cl)c2)c(=O)[n-]c1=O.[Na+] [Sodium salt Form A]", 5.18]
]}

Could you now look at the following compound, please?
For record Cc1nn(-c2cc(Cl)c(Oc3cc(C(C)C)c(=O)[nH]n3)c(Cl)c2)c(=O)[n-]c1=O.[K+] [Potassium salt Form 2] the listed PH 2 h is 5.24

---

- EXPERIMENTAL PROTOCOL: Solubility in water and bio-relevant media at 37° C. (HPLC of filtrate, pH of filtrate, XRPD of filter cake)
- Format: physicochemical
- MEASUREMENT PARAMETERS: filter cake obtained at 2 or 24 hours, FaSSIF

{"columns": ["MOLECULE", "XRPD"],
 "data": [
  ["Cc1nn(-c2cc(Cl)c(Oc3cc(C(C)C)c(=O)[nH]n3)c(Cl)c2)c(=O)[n-]c1=O.[Na+] [Sodium salt Form A]", "Free acid"],
  ["Cc1nn(-c2cc(Cl)c(Oc3cc(C(C)C)c(=O)[nH]n3)c(Cl)c2)c(=O)[n-]c1=O.[K+] [Potassium salt Form 2]", "Free acid"],
  ["Cc1nn(-c2cc(Cl)c(Oc3cc(C(C)C)c(=O)[nH]n3)c(Cl)c2)c(=O)[n-]c1=O.[K+] [Potassium salt Form 1]", "Free acid"]
]}
